Compiled log10 of IC50 measurements on UniProt:P43490 taken from the literature.
Sequence (P43490 whole entry): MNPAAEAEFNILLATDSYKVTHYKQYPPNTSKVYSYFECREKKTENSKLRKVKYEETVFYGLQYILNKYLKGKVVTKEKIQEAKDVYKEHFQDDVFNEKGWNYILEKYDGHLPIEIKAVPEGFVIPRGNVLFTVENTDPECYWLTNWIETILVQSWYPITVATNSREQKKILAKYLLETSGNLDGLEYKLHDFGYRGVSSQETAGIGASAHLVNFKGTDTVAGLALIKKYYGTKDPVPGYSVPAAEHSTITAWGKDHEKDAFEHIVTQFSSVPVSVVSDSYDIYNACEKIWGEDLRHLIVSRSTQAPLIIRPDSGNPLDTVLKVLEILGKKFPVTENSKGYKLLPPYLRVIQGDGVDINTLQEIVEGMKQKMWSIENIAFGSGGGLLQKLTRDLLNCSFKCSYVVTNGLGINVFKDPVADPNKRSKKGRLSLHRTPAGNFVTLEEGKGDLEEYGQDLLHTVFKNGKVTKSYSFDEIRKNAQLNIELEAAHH
measured.attribute: log10 of IC50 (log10 of the value in nM)

{"molecule": "O=C(NCc1ccn2ccnc2c1)c1ccc(C(=O)NC[C@@H]2CCOC2)cc1", "study.system": "UniProt:P43490", "log10 of IC50": 0.49}
{"molecule": "Cc1ncccc1N1CC(C(=O)Nc2ccc(C3CCN(C(=O)C4CCCCC4)CC3)cc2)C1", "study.system": "UniProt:P43490", "log10 of IC50": 1.99}
{"molecule": "COCCNC(=O)N(Cc1ccc(F)cc1)c1ncc(C(=O)NCCCn2ccnc2)s1", "study.system": "UniProt:P43490", "log10 of IC50": 0.24}
{"molecule": "CC(C)CCNC(=O)c1ccc(NC(=O)NCc2ccc3nccn3c2)cc1", "study.system": "UniProt:P43490", "log10 of IC50": -0.16}
{"molecule": "O=C(Nc1ccc(OC2CN(C(=O)c3ccc(F)cc3)C2)cc1)C1CN(c2ccnnc2)C1", "study.system": "UniProt:P43490", "log10 of IC50": 1.45}
{"molecule": "O=C(Nc1ccc(OC2CCN(C(=O)c3cccc(Cl)c3)CC2)cc1)C1CN(c2ccnnc2)C1", "study.system": "UniProt:P43490", "log10 of IC50": 1.71}
{"molecule": "O=C(NCc1ccn2ccnc2c1)c1cnc(C2=CCN(C(=O)c3ccccc3)CC2)s1", "study.system": "UniProt:P43490", "log10 of IC50": -0.54}
{"molecule": "O=C(Nc1ccc(C(=O)NCc2ccccc2)cc1)Nc1ccc2nccn2c1", "study.system": "UniProt:P43490", "log10 of IC50": -0.29}
{"molecule": "CC(C)(C)OC(=O)N1CCC(Oc2ccc(NC(=O)[C@@H]3CCN(c4cccnc4)C3)cc2)CC1", "study.system": "UniProt:P43490", "log10 of IC50": 1.24}
{"molecule": "O=C(NCCCn1ccnc1)c1cnc(N(Cc2ccc(F)cc2)C(=O)CC2CCOCC2)s1", "study.system": "UniProt:P43490", "log10 of IC50": -0.26}
{"molecule": "O=C(NCc1ccn2ccnc2c1)Nc1ccc(C2CCN(C(=O)C3CCC(F)(F)CC3)CC2)cc1", "study.system": "UniProt:P43490", "log10 of IC50": -0.11}
{"molecule": "CC[C@H](C)C(=O)N1CC(Oc2ccc(NC(=O)NCc3ccn4ccnc4c3)cc2)C1", "study.system": "UniProt:P43490", "log10 of IC50": -0.77}
{"molecule": "Cc1ccsc1C(=O)N1CCC(c2ccc(C(=O)NCc3ccn4ccnc4c3)s2)C1 (centres unmarked)", "study.system": "UniProt:P43490", "log10 of IC50": -0.40}
{"molecule": "O=C(Nc1ccc(C2CCN(C(=O)CCC(F)(F)F)CC2)cc1)C1CN(c2cccnc2)C1", "study.system": "UniProt:P43490", "log10 of IC50": -0.44}
{"molecule": "O=C(Nc1ccc(OC2CCN(C(=O)c3ccc(C(F)(F)F)cc3)CC2)cc1)C1CN(c2ccnnc2)C1", "study.system": "UniProt:P43490", "log10 of IC50": 1.80}
{"molecule": "CCN(CC)CCNC(=O)N(Cc1ccc(C#N)cc1)c1ncc(C(=O)NCCCn2ccnc2)s1", "study.system": "UniProt:P43490", "log10 of IC50": 1.99}
{"molecule": "CC(C)OCCNC(=O)N(CCc1ccc(Cl)cn1)c1ncc(C(=O)NCCCn2ccnc2)s1", "study.system": "UniProt:P43490", "log10 of IC50": -0.72}
{"molecule": "CC(C)C(=O)N1CC[C@@H](Oc2ccc(C(=O)NCc3ccn4ccnc4c3)cc2)C1", "study.system": "UniProt:P43490", "log10 of IC50": -0.06}
{"molecule": "CC[C@H](C)C(=O)N1CCC(c2ccc(C(=O)NCc3ccn4ccnc4c3)cc2)C1 (some centres unmarked)", "study.system": "UniProt:P43490", "log10 of IC50": -0.50}
{"molecule": "O=C(NCc1ccn2ccnc2c1)Nc1ccc(O[C@@H]2CCN(C(=O)c3ccc(F)cc3)C2)cc1", "study.system": "UniProt:P43490", "log10 of IC50": -0.17}
{"molecule": "O=C(Nc1ccc(OC2CN(C(=O)Cc3ccc(F)cc3)C2)cc1)C1CN(c2ccnnc2)C1", "study.system": "UniProt:P43490", "log10 of IC50": 1.32}
{"molecule": "O=C(Nc1ccc(OC2CCN(C(=O)Cc3cc(F)cc(F)c3)CC2)cc1)C1CN(c2cccnn2)C1", "study.system": "UniProt:P43490", "log10 of IC50": -0.08}
{"molecule": "CCOC(=O)C(C)CNC(=O)N(Cc1ccc(C#N)cc1)c1ncc(C(=O)NCCCn2ccnc2)s1 (centres unmarked)", "study.system": "UniProt:P43490", "log10 of IC50": 2.00}
{"molecule": "O=C(Nc1ccc(OC2CCN(C(=O)c3ccc(OC(F)(F)F)cc3)CC2)cc1)C1CN(c2cccnn2)C1", "study.system": "UniProt:P43490", "log10 of IC50": 0.15}
{"molecule": "CC(C)CCNC(=O)N(Cc1ccc(F)cc1)c1ncc(C(=O)NCCCn2ccnc2)s1", "study.system": "UniProt:P43490", "log10 of IC50": -0.16}
{"molecule": "Cn1nccc1C(=O)N1CCC(c2ccc(C(=O)NCc3ccn4ccnc4c3)s2)C1 (centres unmarked)", "study.system": "UniProt:P43490", "log10 of IC50": -0.39}
{"molecule": "CC(C)OCC(=O)Nc1ccc(NC(=O)NCc2ccn3ccnc3c2)cc1", "study.system": "UniProt:P43490", "log10 of IC50": -0.53}
